Where do the numbers come from? From the DeepSol protein solubility set.

testProtocol: soluble on expression in E. coli; label from the status in PepcDB or PDB records

sequenceRecord	soluble on expression in E. coli
LRFQMNTRQFVSCWRSHKDELIATYFDASTDSQVGKAISDLGLNAGQTASLRTVIDGVLTDAFYSLLLGLDGAASIGPVQQPYEIRAEDGSVIRDIEPEAWAQFHDRSA	not soluble
MGSDKIHHHHHHMTARHSDCVHCLMRGQSIFAGLSREEVCELGMDVQDIHVPAGTTIYHEGDPAQYAYTLRQGGIKLVKSLPNGHAQIVRLLHHGDLLGFEGLRTDRHRHSAITLTGTDLCRLELRALDALSQRLPAVREAIFARWQQALQEAEDRIVELGAKKADARLATFLCQWVGAYPQQRAAPFPLTRQDLGEFLGLSTEHVSRIMADLKRHRLLHEHKGQIEIPDPQNLFLYASSDGTRA	not soluble

---

testProtocol: soluble on expression in E. coli; label from the status in PepcDB or PDB records
metric: soluble on expression in E. coli

sequenceRecord	soluble on expression in E. coli
VQLLESGPGVVKPSETLSLTCTVSGASVNNYYWTWVRQPPGKGLEWIGNVYDSGDTNYNPSLSSRLSLSMDTSKNQFSLRLSSVTAADTATYYCARYHRHFIRGPLSFDYWGRGTLVTVSSASTKGPSVFPLAPSSKSTSGGTSALGCLVKDYFPEPVTVSWNSGALTSGVHTFPAVLQSSGLYSLSSVVTVPSSSLGTQTYICNVNHKPSNTKVDKKVEPKSCDKTS	soluble
MGHHHHHHSHMEKCSVGGLELTEQTPALLGNMAMATSLMDIGDSFGHPACPLVSRSRNSPVEDDDDDDDVVFIESIQPPSISAPAIADQRNFIFASSKNEKPQGNYSVIPPSSRDLASQKGNISETIVIDDEEDVETNGGAEKKSSFFIEWGLPGTKNKTNDLDFSTSSLSRSKTKTGVRPFNPGRMNVAGDLFQNGEFATHHSPEMHLQRRLMSFFQ	not soluble
MPSIRLADLAQQLDAELHGDGDIVITGVASMQSAQTGHITFMVNPKYREHLGLCQASAVVMTQDDLPFAKSAALVVKNPYLTYARMAQILDTTPQPAQNIAPSAVIDATAKLGNNVSIGANAVIESGVELGDNVIIGAGCFVGKNSKIGAGSRLWANVTIYHEIQIGQNCLIQSGTVVGADGFGYANDRGNWVKIPQIGRVIIGDRVEIGACTTIDRGALDDTIIGNGVIIDNQCQIAHNVVIGDNTAVAGGVIMAGSLKIGRYCMIGGASVINGHMEICDKVTVTGMGMVMRPITEPGVYSSGIPLQPNKVWRKTAALVMNIDDMSKRLKSLERKVNQQD	soluble
MAANFWNSSHYKQLLDPEEVDVVHDLDKERGISIDDFKLIKFHMSNHIMKLAQHIKVRQRVVATAITYMRRVYIRKSMVEFEPRLVALTCLYLASKAEESIVQARNLVFYIKRLYPDEYNKYELKDILGMEMKVLEALDYYLVVFHPYRSLSEFLQDAALNDVNMNQITWGIVNDTYKMDLILVHPPYRIALACIYIASVHREKDITAWFEDLHEDMNLVKNIAMEILDFYENYRTITEEKVNSAFSKLALKL	soluble
MGSDKIHHHHHHMKKLVATAPRVAALVEYEDRAILANEVKIRVRFGAPKHGTEVVDFRAASPFIDEDFNGEWQMFTPRPADAPRGIEFGKFQLGNMVVGDIIECGSDVTDYAVGDSVCGYGPLSETVIINAVNNYKLRKMPQGSSWKNAVCYDPAQFAMSGVRDANVRVGDFVVVVGLGAIGQIAIQLAKRAGASVVIGVDPIAHRCDIARRHGADFCLNPIGTDVGKEIKTLTGKQGADVIIETSGYADALQSALRGLAYGGTISYVAFAKPFAEGFNLGREAHFNNAKIVFSRACSEPNPDYPRWSRKRIEETCWELLMNGYLNCEDLIDPVVTFANSPESYMQYVDQHPEQSIKMGVTF	not soluble
MQAQNMTEASTVHVEHDPVRQRFNVDTDGHRAELAYRREGEIMTITHTQVPDAVSGRGIAAALVEDALAFARQHGLKVVPACRYADAYVRRHPRYQDLLAMAGDPLEHHHHHH	not soluble

Request: # return recorded soluble on expression in E. coli for input `MKTFEELCQENYSRIYKYIFSMTGSKESTEDLIQEVFIAAYEKGEAFLRHEKPAAFLYKTARNMTVTYLKNLKRQRISAMEYLSENIPQDDTDLCETLLMELDRKIDETAYTGQVIGNLNTNQHNLYRQRYVEGKSIKEIASEEGVSETAMRMRLVRLRKEIQDIVKKLKLGEK`
Result: not soluble

---

testProtocol: soluble on expression in E. coli; label from the status in PepcDB or PDB records

sequenceRecord	soluble on expression in E. coli
GPGSMASSKVILEDTFTVAAVNEEGTVYSRVSRVRCTGEGGGLIITSDVNTGEFPLHSGDRLTIILTDSIELSEQAGSKHYDQSVYHRSTRLDDCDYAMHGRVYSMEVNESSLDVTVHISCGGLLTQIVGKPQSLKDVHYNSDVYILMKRPGS	soluble
MIPTERRQIILDMVAEKGIVSIAELTERMHVSHMTIRRDLQKLEQQGAVIQVSGGVQSSTRVAHEPSHQIKTELATPQKAAIGKLAASLVQPESCIYLDAGTTTLAIARQLVTMNKLTVVTNDFVIADYLMDNSNCTIIHTGGAVCRENRSCVGEAAATLLRGLMIDQAFISASSWSVRGISTPAEDKVTVKRAVASASRQKILVCDATKYGQVATWLALPLAEFNQIVTDDGLPESAIRALAKVDISLLMAKQLEHHHHHH	soluble

---

testProtocol: soluble on expression in E. coli; label from the status in PepcDB or PDB records
metric: soluble on expression in E. coli

sequenceRecord	metric	endpointValue
MPLDGEYEPSPTQWVREQVERYESSGGTEGTTLMDTGLPVIVLTTRGARSGKLRKTPLMRVEHEGRYAVVASLGGAPKHPVWYFNVKADPRVELQDGPVKQDMTAREVTGAEKARWWERAVAAYPSYADYQKKTEREIPVFVLEPSHAG	soluble on expression in E. coli	not soluble
QNLPQGDLMQHGMMAVKAATLSDAEVRQVADQACAESDQQNRIAPANSKYGQRLDKIAKALGDQIDGVPVNYKVYLTEEVNAWAMANGCIRVYSGLMELMSDNEIEGVLGHEMGHVALGHTRKAAQTAYAAAAVRGAAGASKSGALAALSGSQLGELTESLVNAQFSQSQESDADDFSYELLKKRGVNTQGLVTAFEKLAKLGGGDSSMFDSHPGSQARADHIRQRIAADR	soluble on expression in E. coli	not soluble
MGGSHHHHHHGMASAQETNQTPGPMLCSTGCGFYGNPRTNGMCSVCYKEHLQRQQNSGRMSPMGTASGSNSPTSDSASVQRADTSLNNCEGAAGSTSEKSRNVPVAALPVTQQMTEMSISREDKITTPKTEVSEPVVTQPSPSVSQPSTSQSEEKAPELPKPKKNRCFMCRKKVGLTGFDCRCGNLFCGLHRYSDKHNCPYDYKAEAAAKIRKENPVVVAEKIQRI	soluble on expression in E. coli	not soluble
MRDSLNNGVSLQQAQETYFAKFNHYSYMAHFVAKILGQRPSHVLSGWGVSELIVAYGHYANEQSYQNFMDWKSSQENAPKPKQPQPFVVQFISQDELEEVE	soluble on expression in E. coli	not soluble

---

testProtocol: soluble on expression in E. coli; label from the status in PepcDB or PDB records
metric: soluble on expression in E. coli

Solved cases (5 shown):
sequenceRecord	soluble on expression in E. coli
SHMQLKFAECLEKKVDMSKVNLEVIKPWITKRVTEILGFEDDVVIEFIFNQLEVKNPDSKMMQINLTGFLNGKNAREFMGELWPLLLSAQENIAGIPSAFLELKKEEIKQR	soluble
MKHTEESLMSTTEKSRKAEEDDEKDMKKRTQFPSSSTSSDPPVGIGGSGALVVNRRRQEGNPVLKYVRNVRYEWGDIGPDFECGPTFGVVYLSFKYHKQHPEYVYTRINGNAENRYRNKVLLGYCNMEEPRHVLRELNMICFREAWTFVVVYTVEEAAEYIELFKTTQKKEITIKKKAIDDGGDSSMSDERRRNREAAIGFLTAARSITKTDADRLLFHFGTLQAISTASETSISACPGVGPIKAKNLHSFLHAIISPNEQD	not soluble
MTSSNEKLPKINHDNEVFALLYKILSSEVQTIKGEDNEKVNQLRVDITISEISQLTDKMKKAFLEQPALLEISNEPITVVADMHGQSIHLLRIFLTNEAPPNQKYLFLGDYVDRGSQSVVVMCLLFCMKHRYPQHVFLLRGNHEDVNTTLNYGFYDECLEQWKNDEGEKVWRMFIDTFNCMPLAAVIGGKVFCAHGGISPWLESLEDINSIERPLVVPPYGLACDLLWSDPAQPERNGWGLSHRGISFTYGKSVVEEFCAKNDIALVIRGHQLFKEMYPQGCVLRFGGRLISLFSALNYEGHKNNSSVLKLEFVGQRVKVKQVLYRCRHYAPLRSNEYLGFRDMKSSSGKNEKRKKGRLESLLG	not soluble
MGVKRKKMGKVAGFTEWTAEDLEAFRARWPIGTAQRLALELYQWTGARCVDVIRLGPQMVGRDGVLTYVQQKTGNPAHVPWTCPAFGLEEQRADLMRCLPVGSPVYMLTEYGKPRTQKGVSQWFSAAAREAGLESRTAHGLRKYRMNALAEHGASVLVMQSWVGHTTLLEVQEYTRRADRRRVISGGHAAALEHHHHHH	not soluble
GSRPGPASQLPRFVRVNTLKTCSDDVVDYFKRQGFSYQGRASSLDDLRALKGKHFLLDPLMPELLVFPAQTDLHEHPLYRAGHLILQDRASCLPAMLLDPPPGSHVIDACAAPGNKTSHLAALLKNQGKIFAFDLDAKRLASMATLLARAGVSCCELAEEDFLAVSPSDPRYHEVHYILLDPSCSGSGMPSRQLEEPGAGTPSPVRLHALAGFQQRALCHALTFPSLQRLVYSTCSLCQEENEDVVRDALQQNPGAFRLAPALPAWPHRGLSTFPGAEHCLRASPETTLSSGFFVAVIERVEVPRRARG	soluble

Request: Consider the sequence `LKSSRFHEKILCDIGGVPMFVATARRVSSVDEVCIALDDEKVLSIAKEYGLNAVLTSKDHESGTDRINEACKKLALKDDEIIINVQADEPFIECENLLKFKEFASFCLDKKAFMASCYKKITQEEAMDPNLVKVLCDKEGYALYFSRAKIPYERENYEESFKGHLGIYAYSVKALREFCSLSSSALERAEKLEQLRAIENGKKIKMLEISTTSMGIDTKEDYERALKIYLEK` . State its measured soluble on expression in E. coli.
Result: not soluble
